tgt: panel of 255 wild-type kinases (Homo sapiens)
assayComment: Kinase panel profiling at 1 µmol/L (MSA or IMAP), percentage inhibition
Type: biochemical
measurementConditions: BUB1/BUB3 kinase assay; 1 µmol/L single concentration; read-out: %-inhibition BUB1/BUB3
Below: a set of entries, each annotated with reported inhibition at 1 µM.
endpoint: inhibition at 1 µM (%)

> print(dat)
                                   compound  measuredresult
1  CCn1c(=O)c(-c2cc(NC(=O)Nc3ccccc3)c(F)cc2Br)cc2cnc(NC)cc21 [ripretinib]            2.76
2  CCN1CCN(c2ccc(Nc3cc(N(C)C(=O)Nc4c(Cl)c(OC)cc(OC)c4Cl)ncn3)cc2)CC1 [infigratinib]           -1.66
3  CCN1C(=O)N(c2c(F)c(OC)cc(OC)c2F)Cc2cnc3[nH]c(CN4CCOCC4)cc3c21 [pemigatinib]           -3.37
4  C=CC(=O)N1CCC([C@@H]2CCNc3c(C(N)=O)c(-c4ccc(Oc5ccccc5)cc4)nn32)CC1 [zanubrutinib]              -6

----------
tgt: panel of 255 wild-type kinases (Homo sapiens, UniProt Q05513)
Sequence (Q05513 whole entry): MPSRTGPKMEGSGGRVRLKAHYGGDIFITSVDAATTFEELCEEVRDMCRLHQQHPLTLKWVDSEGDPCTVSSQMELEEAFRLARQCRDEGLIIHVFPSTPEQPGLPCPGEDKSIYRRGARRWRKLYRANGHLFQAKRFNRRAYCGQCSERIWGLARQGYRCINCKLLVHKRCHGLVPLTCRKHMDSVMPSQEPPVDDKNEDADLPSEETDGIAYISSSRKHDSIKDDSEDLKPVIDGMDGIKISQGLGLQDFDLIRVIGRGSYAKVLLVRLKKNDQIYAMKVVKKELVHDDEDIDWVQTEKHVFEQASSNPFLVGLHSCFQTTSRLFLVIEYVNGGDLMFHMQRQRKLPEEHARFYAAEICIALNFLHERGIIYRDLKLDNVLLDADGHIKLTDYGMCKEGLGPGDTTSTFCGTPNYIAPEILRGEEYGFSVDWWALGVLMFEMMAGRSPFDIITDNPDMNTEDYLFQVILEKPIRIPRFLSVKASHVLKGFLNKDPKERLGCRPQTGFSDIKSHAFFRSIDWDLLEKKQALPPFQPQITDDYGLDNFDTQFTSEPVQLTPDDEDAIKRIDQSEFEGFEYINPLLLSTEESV
assayComment: Kinase panel profiling at 1 µmol/L (MSA or IMAP), percentage inhibition
Type: biochemical
measurementConditions: kinase PKCζ; 1 µmol/L single concentration; read-out: %-inhibition at 1 µmol/L, PKCζ
// inhibition at 1 µM lookup, one value per entry
endpoint: inhibition at 1 µM

> print(dat)
                               samplesmiles  measuredresult
1  COc1ccc(CN2C3CC2CN(c2ccc(-c4cc(OCC(C)(C)O)cn5ncc(C#N)c45)cn2)C3)cn1             -1%
2  O=C(Nc1cnn2ccc(N3CCC[C@@H]3c3cc(F)ccc3F)nc12)N1CC[C@H](O)C1          0.558%
3  C[C@H]1Oc2cc(cnc2N)-c2c(nn(C)c2C#N)CN(C)C(=O)c2ccc(F)cc21             17%
4  Cc1nc(NC(=O)N2CCC[C@H]2C(N)=O)sc1-c1ccnc(C(C)(C)C(F)(F)F)c1             14%
5  CCn1c(=O)c(-c2cc(NC(=O)Nc3ccccc3)c(F)cc2Br)cc2cnc(NC)cc21             15%
6  COC(=O)N[C@@H](C)CNc1nccc(-c2cn(C(C)C)nc2-c2cc(Cl)cc(NS(C)(=O)=O)c2F)n1             19%
7  Cn1cnc2c(F)c(Nc3ccc(Br)cc3Cl)c(C(=O)NOCCO)cc21              1%
8  CCN1C(=O)N(c2c(F)c(OC)cc(OC)c2F)Cc2cnc3[nH]c(CN4CCOCC4)cc3c21        -0.0817%

----------
Items are presented alongside their recorded inhibition at 1 µM.
tgt: UniProt P68400
Sequence (P68400 whole entry): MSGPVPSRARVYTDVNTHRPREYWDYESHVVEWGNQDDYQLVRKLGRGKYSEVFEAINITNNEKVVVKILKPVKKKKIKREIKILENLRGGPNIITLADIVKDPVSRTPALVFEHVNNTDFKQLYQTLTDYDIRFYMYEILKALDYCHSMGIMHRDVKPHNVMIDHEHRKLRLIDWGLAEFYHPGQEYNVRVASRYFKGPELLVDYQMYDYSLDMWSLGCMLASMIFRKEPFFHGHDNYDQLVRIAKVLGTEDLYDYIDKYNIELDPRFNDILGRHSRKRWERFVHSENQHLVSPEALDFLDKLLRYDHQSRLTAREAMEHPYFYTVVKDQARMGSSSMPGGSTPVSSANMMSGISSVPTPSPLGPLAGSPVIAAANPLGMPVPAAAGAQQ
assayComment: Kinase panel profiling at 1 µmol/L (MSA or IMAP), percentage inhibition
Type: biochemical
measurementConditions: kinase CK2α1/β; 1 µmol/L single concentration; read-out: %-inhibition at 1 µmol/L, CK2α1/β
endpoint: inhibition at 1 µM (%)

> print(dat)
                               samplesmiles  measuredresult
1  O=C(Nc1cnn2ccc(N3CCC[C@@H]3c3cc(F)ccc3F)nc12)N1CC[C@H](O)C1           -2.37
2  CCc1nc(C(N)=O)c(Nc2ccc(N3CCC(N4CCN(C)CC4)CC3)c(OC)c2)nc1NC1CCOCC1              15
3  Cn1cnc2c(F)c(Nc3ccc(Br)cc3Cl)c(C(=O)NOCCO)cc21              -5
4  C=CC(=O)N1CCC([C@@H]2CCNc3c(C(N)=O)c(-c4ccc(Oc5ccccc5)cc4)nn32)CC1              -2
